system: Fer (mouse); experiment: phosphorylation enrichment, bacterial display (enrichment ratio); higher = better substrate or ligand; peptides without Tyr show the background;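 note: 11-residue human phosphosite peptides and single-mutation variants displayed on the E. coli surface, counted by deep sequencing, each peptide's frequency after selection divided by its frequency in the unselected input library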;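 note: frequency after pTyr selection over input frequency; kinase dosed for 20-30% of maximal phosphorylation in three min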
I'd appreciate it if you could supply phosphorylation enrichment values for the items below.
Please reply with the number alone, leaving off any unit.

**Q:** Name the recorded phosphorylation enrichment for LLQAEYWHDPI [PPT1_Y185_V181L] .
**A:** 0.74

**Q:** Quick one: AVLQPYIFVAT [CFTR_Y1014]
**A:** 0.674

**Q:** Same again, this time with CTTIHYMFMCN [TP53_Y234_N235M_YF]
**A:** 0.555

**Q:** Param item: GIVEEYQLPFF [BMPR1A_Y453_YF]
**A:** 0.587

**Q:** VQVAYYTMMMN [SPATA17_Y84] , same question.
**A:** 3.67

**Q:** Same for TSESSYFKSLN [NGEF_Y288_A286S_YF]
**A:** 0.436

**Q:** Same lookup for LDAFIYDAAVL [GRIN2A_Y730] , please.
**A:** 20.3

**Q:** Query KVASVYEAPGF [NT5C_Y65] next
**A:** 6.87

**Q:** # repeat for LLLLFYVVRFC [MPZ_Y177_YF]
**A:** 1.14

**Q:** Try FQNSLYAPDYS [FAM92A_Y226_R222Q] next.
**A:** 1.6

**Q:** Also, KAIMIYVSSFF [ACTN4_Y260_T259I_YF] please.
**A:** 0.444

**Q:** Same question, EYKDAYKFAAD [BRDT_Y335] this time
**A:** 0.559

**Q:** Quick one: RSSGGYEPRGC [FUS_Y239_R244C]
**A:** 0.277

**Q:** For HFGCIYHGTLL [MET_Y1093_V1092I] then?
**A:** 0.716

**Q:** Please give the result for KDPPDYKYQPR [SOX9_Y172_H169P] too.
**A:** 0.421

**Q:** Can you check HLQQSYLPRGT [TEX45_Y396] next?
**A:** 0.697

**Q:** Here is the next sequence: LAGRFYALKSM [CKB_Y174_YF]
**A:** 0.46

**Q:** What about this sequence? KLIETCFSKNF [PLP1_Y50_Y50C_YF]
**A:** 0.504

**Q:** Likewise for RFGKVYKAHLF [ROR2_Y488_G490A] ?
**A:** 0.846

**Q:** Entry MIRSAYALGGL [CPS1_Y590] please
**A:** 0.32

**Q:** And the next one, CTTVHYNFMCN [TP53_Y234_I232V_YF] ?
**A:** 0.598

**Q:** Subsequent entry: NFRPGYNNFFN [USH2A_Y467_YF]
**A:** 0.389

**Q:** Again, but for GAAMLYFPSVS [GPR143_Y177_YF]
**A:** 0.437

**Q:** Param item: TMKSHYMELYD [BBS2_Y644_R643H]
**A:** 0.453

**Q:** Moving on to DVLVEYQGEGR [GNS_Y416]
**A:** 0.43

* * *

target: Fyn (UniProt P06241); assay: phosphorylation enrichment, bacterial display (enrichment ratio); higher = better substrate or ligand; peptides without Tyr show the background
Sequence (P06241 whole entry, looked up): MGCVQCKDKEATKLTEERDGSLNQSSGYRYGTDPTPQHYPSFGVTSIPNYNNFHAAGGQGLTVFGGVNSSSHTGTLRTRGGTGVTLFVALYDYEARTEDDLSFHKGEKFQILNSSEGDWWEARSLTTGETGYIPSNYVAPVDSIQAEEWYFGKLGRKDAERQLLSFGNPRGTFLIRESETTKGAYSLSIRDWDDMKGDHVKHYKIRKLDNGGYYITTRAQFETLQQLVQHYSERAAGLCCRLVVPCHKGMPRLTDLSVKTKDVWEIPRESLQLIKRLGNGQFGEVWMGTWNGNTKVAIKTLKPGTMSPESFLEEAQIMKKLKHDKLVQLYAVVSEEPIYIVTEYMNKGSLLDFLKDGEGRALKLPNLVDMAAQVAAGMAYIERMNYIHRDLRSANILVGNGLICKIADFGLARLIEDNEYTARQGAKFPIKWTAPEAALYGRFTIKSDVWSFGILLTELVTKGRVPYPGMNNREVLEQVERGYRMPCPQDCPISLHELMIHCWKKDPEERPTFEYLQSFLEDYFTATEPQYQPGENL
Would you mind telling me the reported phosphorylation enrichment of each entry?
Give only the figure.

**Q:** Fill in: phosphorylation enrichment of PVGVLYEVKVY [PTS_Y128_K129E] is ___
**A:** 0.775

**Q:** Next up: CEAIEYLESKQ [BTK_Y511_M509I]
**A:** 0.485

**Q:** Repeat for the following sequence: MARDISRASFF [ALK_Y1278_Y1278S_YF]
**A:** 0.443

**Q:** And what about the sequence LKRIAYFLCLL [LGI1_Y21] ?
**A:** 0.506

**Q:** Query RPFSPYIIRGM [LRP5_Y1531_R1529S_YF] next
**A:** 0.98

**Q:** Request: IEPVIYVVQRR [ANOS1_Y217]
**A:** 0.304

**Q:** Thanks! And FGSRLYKFAFK [FANCD2_Y458_L456R_YF] ?
**A:** 0.433

**Q:** Let us now turn to VYPATYHPDHW [EFCAB12_Y544]
**A:** 0.465

**Q:** Entry to check: KLNNEHLELNY [MME_Y497_Y497H]
**A:** 0.471

**Q:** What do we get for AVARPYHIQKW [ACSBG1_Y677_A673V] ?
**A:** 0.391

**Q:** Next: AEFGLYGAMVW [VSX2_Y222_R227W_YF]
**A:** 3.08

* * *

Give phosphorylation enrichment for every item shown.
biological target: MERTK (UniProt Q12866); assay: phosphorylation enrichment, bacterial display (enrichment ratio); higher = better substrate or ligand; peptides without Tyr show the background
Sequence (Q12866 whole entry, looked up): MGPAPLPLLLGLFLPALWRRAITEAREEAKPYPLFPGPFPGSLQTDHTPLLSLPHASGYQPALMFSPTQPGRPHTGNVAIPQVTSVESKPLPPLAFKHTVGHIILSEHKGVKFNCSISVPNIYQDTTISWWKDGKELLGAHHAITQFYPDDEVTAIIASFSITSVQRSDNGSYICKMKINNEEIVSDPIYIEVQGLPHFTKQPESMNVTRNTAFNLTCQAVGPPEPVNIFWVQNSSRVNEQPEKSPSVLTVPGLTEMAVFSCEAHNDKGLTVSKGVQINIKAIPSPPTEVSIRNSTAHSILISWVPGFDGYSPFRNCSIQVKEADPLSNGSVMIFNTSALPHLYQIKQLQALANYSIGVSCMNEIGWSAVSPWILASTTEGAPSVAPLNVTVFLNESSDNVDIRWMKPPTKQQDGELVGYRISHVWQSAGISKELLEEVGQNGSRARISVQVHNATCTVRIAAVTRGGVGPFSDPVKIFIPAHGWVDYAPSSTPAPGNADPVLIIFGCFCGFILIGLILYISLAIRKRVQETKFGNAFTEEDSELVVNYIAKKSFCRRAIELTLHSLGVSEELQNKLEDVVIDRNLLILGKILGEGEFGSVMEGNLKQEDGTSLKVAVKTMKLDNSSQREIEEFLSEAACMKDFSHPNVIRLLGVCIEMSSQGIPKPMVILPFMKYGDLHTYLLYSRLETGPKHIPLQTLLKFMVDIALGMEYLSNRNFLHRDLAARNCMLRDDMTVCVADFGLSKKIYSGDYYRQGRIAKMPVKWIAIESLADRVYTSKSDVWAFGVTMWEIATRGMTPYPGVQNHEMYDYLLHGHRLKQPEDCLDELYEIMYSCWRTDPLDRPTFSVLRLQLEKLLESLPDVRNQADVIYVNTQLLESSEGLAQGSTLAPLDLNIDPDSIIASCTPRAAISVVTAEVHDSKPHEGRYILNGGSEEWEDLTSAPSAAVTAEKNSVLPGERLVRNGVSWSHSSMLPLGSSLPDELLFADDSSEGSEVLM
Please reply with the value in numeric form only.

**Q:** For the record LSPNMYNSKFW [TARSL2_Y457_L461F] , what value of phosphorylation enrichment is listed for MERTK (UniProt Q12866)?
**A:** 1.11

**Q:** Item: GIVEDYRPPLF [ACVRL1_Y421_F425L_YF]
**A:** 0.377

**Q:** Same thing, different sequence: KWRGQYDVAIR [BTK_Y425_K430R]
**A:** 0.341

**Q:** And the next one, TTKGAYSLSVR [YES1_Y194_I198V] ?
**A:** 0.364

**Q:** QSSEGYDLGDR [KIAA1210_Y564_G565D] , same question.
**A:** 0.501

**Q:** Now the sequence RELSWYRGQRP [HESX1_Y106_R109Q]
**A:** 0.488

**Q:** Another sequence to look at: VYSSDYFSFVL [USP24_Y2138]
**A:** 5.03

* * *

Task for the reader: assign each of the following sequences its reported phosphorylation enrichment.
system: Fer (mouse); assay: phosphorylation enrichment, bacterial display (enrichment ratio); higher = better substrate or ligand; peptides without Tyr show the background

**Q:** Form entry - test system: Fer (mouse); read-out: phosphorylation enrichment; sequence: IMAFFYMCDRA [CASD1_Y382_YF]
**A:** 0.677

**Q:** Next: YLEEEYVKAVG [TF_Y674_G671E]
**A:** 0.615

**Q:** Queued: KMTGRYEMFAR [UPB1_Y362_YF]
**A:** 0.438

**Q:** Lookup SLGKGYSDGGC [MC4R_Y35]
**A:** 0.399

**Q:** Proceed to ENELTYFCCKK [CD59_Y86_YF]
**A:** 0.478

**Q:** Now the same for KWTVDYLSQVG [TYW5_Y48]
**A:** 0.391

**Q:** Follow-up entry: ACVARYIFKRL [LPCAT3_Y348_W344C]
**A:** 0.492

**Q:** Same read-out for NGVSFYINLCQ [IGF2R_Y2025_YF] ?
**A:** 0.671

**Q:** Ok, now FSPCDYQPCLA [TNS1_Y798_Y796C_YF]
**A:** 0.539

**Q:** Next record, please: FHLGKYLQEVL [KLB_Y910_Y906H_YF]
**A:** 0.48

**Q:** Next up: AERKLYSGAQT [ZAP70_Y178]
**A:** 0.358

**Q:** Repeat with DNPAKYFILEN [DPP10_Y512_S517N]
**A:** 0.531

**Q:** Another: RFLKDYGEFEV [GINS1_Y156_C152Y_YF]
**A:** 0.63

**Q:** Try this sequence too: CTTILYNFMCN [TP53_Y234_H233L_YF]
**A:** 0.87

**Q:** Try RCLKDYGEFEV [GINS1_Y156] next.
**A:** 1.16

**Q:** Next entry: TNLVPYPRIHF [TUBA1A_Y262]
**A:** 0.449

**Q:** Note, next up: NVLPEYKLQAP [KCNH2_Y388_D383N]
**A:** 0.402

**Q:** Record: SVLVPYEPPEV [TP53_Y220_V217L]
**A:** 0.63

**Q:** # repeat for NDTAGYFIIGG [SEL1L3_Y399]
**A:** 0.494

**Q:** Entry to check: GNHVSYFQSDG [CACNA1C_Y1757_YF]
**A:** 0.369

**Q:** What would you report for QKPLGYFRVNL [GALE_Y104_D103G_YF] ?
**A:** 0.399

**Q:** Moving on to the next sequence: FYDANCDGKEY [MAPRE2_Y162_Y162C]
**A:** 0.527

**Q:** Field entry: NAGAFYVLSTL [FLVCR2_Y325_A326V]
**A:** 0.525
